Tested on: Botrytis cinerea (B05.10)
Experiment: Resazurin antifungal assay of 180 alpha-factor peptide variants towards Botrytis (Example 2)
Type: cell-based
Conditions: % inhibition of fungal growth, Botrytis conidia, peptide 100 μM, resazurin
Peptide text beside a SMILES is read from it.
The entries below come with measured Inhibition at 100 μM values attached.

compound: CSCC[C@H](NC(=O)[C@@H]1CCCN1C(=O)[C@H](CCC(N)=O)NC(=O)CNC(=O)[C@H](Cc1ccc(O)cc1)NC(=O)[C@H](CC(N)=O)NC(=O)[C@H](CC(C)C)NC(=O)[C@H](CCCCN)NC(=O)[C@H](CC(C)C)NC(=O)[C@H](Cc1c[nH]c2ccccc12)NC(=O)[C@H](Cc1c[nH]cn1)NC(=O)[C@@H](N)Cc1c[nH]c2ccccc12)C(=O)N[C@@H](Cc1ccc(O)cc1)C(=O)O [compound 108] (H-WHWLKLNYGQPMY-OH; N-terminus and C-terminus assumed)
target: Botrytis cinerea (B05.10)
qualifier-operator: =
Inhibition at 100 μM [%]: 100

compound: CSCC[C@H](NC(=O)[C@@H]1CCCN1C(=O)[C@H](CCC(N)=O)NC(=O)CNC(=O)[C@@H]1CCCN1C(=O)[C@H](CCCCN)NC(=O)[C@H](CC(C)C)NC(=O)[C@H](CC(N)=O)NC(=O)[C@H](CC(C)C)NC(=O)[C@H](Cc1c[nH]c2ccccc12)NC(=O)[C@H](CCC(=O)O)NC(=O)[C@@H](N)CCCCN)C(=O)N[C@@H](Cc1ccc(O)cc1)C(=O)O [compound 151] (H-KEWLNLKPGQPMY-OH; N-terminus and C-terminus assumed)
target: Botrytis cinerea (B05.10)
qualifier-operator: <
Inhibition at 100 μM [%]: 90

----------
System: Botrytis cinerea (B05.10)
Assay: Resazurin antifungal assay of 180 alpha-factor peptide variants towards Botrytis (Example 2)
Assay type: cell-based
Conditions: % inhibition of fungal growth, Botrytis conidia, peptide 100 μM, resazurin
Peptide text beside a SMILES is read from it.
Listing of recorded Inhibition at 100 μM by entry.
observation-type: Inhibition at 100 μM (%)

molecule: CSCC[C@H](NC(=O)[C@@H]1CCCN1C(=O)[C@H](CCC(N)=O)NC(=O)CNC(=O)[C@@H]1CCCN1C(=O)[C@H](CCCCN)NC(=O)[C@H](Cc1ccccc1)NC(=O)[C@H](CO)NC(=O)[C@H](CC(C)C)NC(=O)[C@H](Cc1ccc(O)cc1)NC(=O)[C@H](Cc1c[nH]cn1)NC(=O)[C@@H](N)CCCCN)C(=O)N[C@@H](Cc1ccc(O)cc1)C(=O)O [compound 94] (H-KHYLSFKPGQPMY-OH; N-terminus and C-terminus assumed)
target: Botrytis cinerea (B05.10)
observation-type: Inhibition at 100 μM
test-result: 100
//
molecule: CC[C@H](C)[C@H](NC(=O)[C@H](CCCCN)NC(=O)[C@H](CC(C)C)NC(=O)[C@@H](NC(=O)[C@H](Cc1c[nH]cn1)NC(=O)[C@@H](N)Cc1c[nH]c2ccccc12)[C@@H](C)O)C(=O)N[C@@H](CCCCN)C(=O)N[C@@H](CCCCN)C(=O)NCC(=O)N[C@@H](CCC(=O)O)C(=O)N1CCC[C@H]1C(=O)N[C@@H](CCSC)C(=O)N[C@@H](Cc1ccc(O)cc1)C(=O)O [compound 15] (H-WHTLKIKKGEPMY-OH; N-terminus and C-terminus assumed)
target: Botrytis cinerea (B05.10)
observation-type: Inhibition at 100 μM
test-result: 100

----------
# reported Inhibition at 15 μM; entries follow
Tested on: Botrytis cinerea (B05.10)
Assay: Resazurin antifungal assay of 180 alpha-factor peptide variants towards Botrytis (Example 2)
Format: cell-based
Settings: % inhibition of fungal growth, Botrytis conidia, peptide 15 μM, resazurin
Peptide text beside a SMILES is read from it.
observation-type: Inhibition at 15 μM

compound: CC[C@H](C)[C@H](NC(=O)[C@H](Cc1c[nH]c2ccccc12)NC(=O)[C@H](Cc1c[nH]cn1)NC(=O)[C@@H]1CCCN1)C(=O)N[C@@H](CO)C(=O)N[C@@H](CC(C)C)C(=O)N[C@@H](CCCCN)C(=O)N[C@@H](CCCCN)C(=O)NCC(=O)N[C@@H](CCC(N)=O)C(=O)N1CCC[C@H]1C(=O)N[C@@H](CCSC)C(=O)N[C@@H](Cc1ccc(O)cc1)C(=O)O [compound 66] (H-PHWISLKKGQPMY-OH; N-terminus and C-terminus assumed)
test-result: <90%
//
compound: CC[C@H](C)[C@H](NC(=O)[C@H](CCCCN)NC(=O)[C@H](CC(C)C)NC(=O)[C@H](Cc1ccccc1)NC(=O)[C@H](Cc1c[nH]cn1)NC(=O)[C@@H](N)CCCCN)C(=O)N[C@@H](CCCCN)C(=O)N1CCC[C@H]1C(=O)NCC(=O)N[C@@H](CCC(N)=O)C(=O)N1CCC[C@H]1C(=O)N[C@@H](CCSC)C(=O)N[C@@H](Cc1ccc(O)cc1)C(=O)O [compound 86] (H-KHFLKIKPGQPMY-OH; N-terminus and C-terminus assumed)
test-result: <90%
//
compound: CSCC[C@H](NC(=O)[C@@H]1CCCN1C(=O)[C@H](CCC(N)=O)NC(=O)CNC(=O)[C@@H]1CCCN1C(=O)[C@H](CC(N)=O)NC(=O)[C@H](CC(C)C)NC(=O)[C@H](CCCNC(=N)N)NC(=O)[C@H](CC(C)C)NC(=O)[C@H](Cc1c[nH]c2ccccc12)NC(=O)[C@H](Cc1c[nH]cn1)NC(=O)[C@@H](N)CCCCN)C(=O)N[C@@H](Cc1ccc(O)cc1)C(=O)O [compound 69] (H-KHWLRLNPGQPMY-OH; N-terminus and C-terminus assumed)
test-result: <90%
//
compound: CSCC[C@H](NC(=O)[C@@H]1CCCN1C(=O)[C@H](CCC(N)=O)NC(=O)CNC(=O)[C@@H]1CCCN1C(=O)[C@H](CCCCN)NC(=O)[C@H](Cc1ccccc1)NC(=O)[C@H](CCCCN)NC(=O)[C@H](CC(C)C)NC(=O)[C@H](Cc1c[nH]c2ccccc12)NC(=O)[C@H](Cc1c[nH]cn1)NC(=O)[C@@H](N)CCCCN)C(=O)N[C@@H](Cc1ccc(O)cc1)C(=O)O [compound 13] (H-KHWLKFKPGQPMY-OH; N-terminus and C-terminus assumed)
test-result: 100%
//
compound: CSCC[C@H](NC(=O)[C@@H]1CCCN1C(=O)[C@H](C)NC(=O)CNC(=O)[C@H](Cc1c[nH]c2ccccc12)NC(=O)[C@H](CCCCN)NC(=O)[C@H](CC(C)C)NC(=O)[C@@H](NC(=O)[C@@H](NC(=O)[C@H](Cc1c[nH]c2ccccc12)NC(=O)[C@H](Cc1c[nH]cn1)NC(=O)[C@@H](N)CCCCN)C(C)C)[C@@H](C)O)C(=O)N[C@@H](Cc1ccc(O)cc1)C(=O)O [compound 3] (H-KHWVTLKWGAPMY-OH; N-terminus and C-terminus assumed)
test-result: <90%

----------
Tested on: Botrytis cinerea (B05.10)
Assay: Resazurin antifungal assay of 180 alpha-factor peptide variants towards Botrytis (Example 2)
Format: cell-based
Settings: % inhibition of fungal growth, Botrytis conidia, peptide 100 μM, resazurin
Peptide text beside a SMILES is read from it.
observation-type: Inhibition at 100 μM

compound: CC[C@H](C)[C@H](NC(=O)[C@H](Cc1c[nH]c2ccccc12)NC(=O)[C@H](Cc1c[nH]cn1)NC(=O)[C@@H]1CCCN1)C(=O)N[C@@H](CO)C(=O)N[C@@H](CC(C)C)C(=O)N[C@@H](CCCCN)C(=O)N[C@@H](CCCCN)C(=O)NCC(=O)N[C@@H](CCC(N)=O)C(=O)N1CCC[C@H]1C(=O)N[C@@H](CCSC)C(=O)N[C@@H](Cc1ccc(O)cc1)C(=O)O [compound 66] (H-PHWISLKKGQPMY-OH; N-terminus and C-terminus assumed)
observation-type: Inhibition at 100 μM
test-result: 100%

----------
Parameter: Inhibition at 20 μM. Scope: all listed entries.
System: Botrytis cinerea (B05.10)
Experiment: Resazurin antifungal assay of 180 alpha-factor peptide variants towards Botrytis (Example 2)
Assay type: cell-based
Conditions: % inhibition of fungal growth, Botrytis conidia, peptide 20 μM, resazurin
Peptide text beside a SMILES is read from it.

compound: CC[C@H](C)[C@H](NC(=O)[C@H](CCC(N)=O)NC(=O)[C@@H](NC(=O)[C@H](Cc1c[nH]c2ccccc12)NC(=O)[C@H](CCCCN)NC(=O)[C@@H](N)Cc1c[nH]c2ccccc12)C(C)C)C(=O)N[C@@H](CCCCN)C(=O)N[C@@H](CCCCN)C(=O)NCC(=O)N[C@@H](C)C(=O)N1CCC[C@H]1C(=O)N[C@@H](CCSC)C(=O)N[C@@H](Cc1ccc(O)cc1)C(=O)O [compound 58] (H-WKWVQIKKGAPMY-OH; N-terminus and C-terminus assumed)
Inhibition at 20 μM: <90%

compound: CC[C@H](C)[C@H](NC(=O)[C@H](CC(=O)O)NC(=O)[C@H](CCCNC(=N)N)NC(=O)[C@@H](N)Cc1c[nH]c2ccccc12)C(=O)N[C@@H](CCCNC(=N)N)C(=O)N[C@@H](CC(C)C)C(=O)N[C@@H](CCCCN)C(=O)N[C@@H](CCCCN)C(=O)NCC(=O)N[C@@H](CCC(N)=O)C(=O)N1CCC[C@H]1C(=O)N[C@@H](CCSC)C(=O)N[C@@H](Cc1ccc(O)cc1)C(=O)O [compound 79] (H-WRDIRLKKGQPMY-OH; N-terminus and C-terminus assumed)
Inhibition at 20 μM: <90%

compound: CSCC[C@H](NC(=O)[C@@H]1CCCN1C(=O)[C@H](CCC(N)=O)NC(=O)CNC(=O)[C@@H]1CCCN1C(=O)[C@H](Cc1c[nH]c2ccccc12)NC(=O)[C@H](CC(C)C)NC(=O)[C@H](CCCCN)NC(=O)[C@H](CC(C)C)NC(=O)[C@H](Cc1c[nH]c2ccccc12)NC(=O)[C@H](Cc1c[nH]cn1)NC(=O)[C@@H](N)CCCCN)C(=O)N[C@@H](Cc1ccc(O)cc1)C(=O)O [compound 14] (H-KHWLKLWPGQPMY-OH; N-terminus and C-terminus assumed)
Inhibition at 20 μM: <90%

compound: CC[C@H](C)[C@H](NC(=O)[C@H](CCSC)NC(=O)[C@H](Cc1c[nH]cn1)NC(=O)[C@@H](N)CCCCN)C(=O)N[C@@H](CCC(N)=O)C(=O)N[C@@H](CC(C)C)C(=O)N[C@@H](Cc1ccc(O)cc1)C(=O)N[C@@H](Cc1c[nH]c2ccccc12)C(=O)NCC(=O)N[C@@H](CCC(N)=O)C(=O)N1CCC[C@H]1C(=O)N[C@@H](CCSC)C(=O)N[C@@H](Cc1ccc(O)cc1)C(=O)O [compound 54] (H-KHMIQLYWGQPMY-OH; N-terminus and C-terminus assumed)
Inhibition at 20 μM: 93.21%

compound: CSCC[C@H](NC(=O)[C@H](CO)NC(=O)[C@H](CCC(N)=O)NC(=O)CNC(=O)[C@H](CCCNC(=N)N)NC(=O)[C@H](Cc1c[nH]c2ccccc12)NC(=O)[C@H](Cc1ccccc1)NC(=O)[C@H](CCC(N)=O)NC(=O)[C@H](CC(C)C)NC(=O)[C@H](Cc1c[nH]c2ccccc12)NC(=O)[C@H](Cc1c[nH]cn1)NC(=O)[C@@H](N)Cc1c[nH]c2ccccc12)C(=O)N[C@@H](Cc1ccc(O)cc1)C(=O)O [compound 1] (H-WHWLQFWRGQSMY-OH; N-terminus and C-terminus assumed)
Inhibition at 20 μM: <90%

compound: CSCC[C@H](NC(=O)[C@@H]1CCCN1C(=O)[C@H](CCC(N)=O)NC(=O)CNC(=O)[C@@H]1CCCN1C(=O)[C@H](CCCCN)NC(=O)[C@H](Cc1ccccc1)NC(=O)[C@H](CCCNC(=N)N)NC(=O)[C@H](CC(C)C)NC(=O)[C@@H](NC(=O)[C@H](Cc1c[nH]cn1)NC(=O)[C@@H](N)Cc1c[nH]c2ccccc12)C(C)C)C(=O)N[C@@H](Cc1ccc(O)cc1)C(=O)O [compound 101] (H-WHVLRFKPGQPMY-OH; N-terminus and C-terminus assumed)
Inhibition at 20 μM: <90%

compound: CSCC[C@H](NC(=O)CNC(=O)[C@H](CCC(N)=O)NC(=O)CNC(=O)[C@@H](NC(=O)[C@H](CCCCN)NC(=O)[C@H](Cc1ccccc1)NC(=O)[C@@H](NC(=O)[C@H](CC(C)C)NC(=O)[C@H](Cc1c[nH]c2ccccc12)NC(=O)[C@H](Cc1c[nH]cn1)NC(=O)[C@@H](N)Cc1c[nH]c2ccccc12)[C@@H](C)O)[C@@H](C)O)C(=O)N[C@@H](Cc1ccc(O)cc1)C(=O)O [compound 16] (H-WHWLTFKTGQGMY-OH; N-terminus and C-terminus assumed)
Inhibition at 20 μM: <90%

compound: CC[C@H](C)[C@H](NC(=O)[C@H](CCC(N)=O)NC(=O)[C@H](CC(C)C)NC(=O)[C@H](Cc1c[nH]c2ccccc12)NC(=O)[C@H](Cc1c[nH]cn1)NC(=O)[C@@H](N)CCCCN)C(=O)N[C@@H](CCCCN)C(=O)N[C@@H](Cc1ccc(O)cc1)C(=O)NCC(=O)N[C@@H](CCC(=O)O)C(=O)N1CCC[C@H]1C(=O)N[C@@H](CCSC)C(=O)N[C@@H](Cc1ccc(O)cc1)C(=O)O [compound 7] (H-KHWLQIKYGEPMY-OH; N-terminus and C-terminus assumed)
Inhibition at 20 μM: <90%

compound: CSCC[C@H](NC(=O)[C@@H]1CCCN1C(=O)[C@H](CCC(N)=O)NC(=O)CNC(=O)[C@@H]1CCCN1C(=O)[C@H](CCCCN)NC(=O)[C@H](Cc1ccccc1)NC(=O)[C@H](CO)NC(=O)[C@H](CC(C)C)NC(=O)[C@H](Cc1ccc(O)cc1)NC(=O)[C@H](Cc1c[nH]cn1)NC(=O)[C@@H](N)CCCCN)C(=O)N[C@@H](Cc1ccc(O)cc1)C(=O)O [compound 94] (H-KHYLSFKPGQPMY-OH; N-terminus and C-terminus assumed)
Inhibition at 20 μM: <90%
